All values here come from patent US20020059032A1.

Biological target: guinea pig brain membranes
Experiment: Binding test with guinea pig brain membranes
Conditions: tested on guinea pig brain membranes; read-out: IC50 = 100 μM
Experimental: Binding Assay Alternative Protocol by Skatron […] The guinea pigs are sacrificed by rupturing their cervical vertibrae, decapitated, and the brains are removed very rapidly and placed into a sucrose-Tris-HCl buffer (0.32 M sucrose 5 mM, Tris-HCl, 0.1 g/l bacitracin) at 4° C. […] The protein content of the membrane preparations is evaluated according to the Bradford method (BioRad, according to the manufacturers protocol). […]
pIC50: −log10 of the molar value. Where a SMILES comes first, the peptide text is derived from it.
Everything with pIC50 lower than 7 is not met; everything else, including exactly 7, is met.

CC(C)C[C@H](NC(=O)[C@H](C)NC(=O)[C@H](CCCCN)NC(=O)CNC(=O)[C@@H]1CCCN1C(=O)[C@@H](NC(=O)[C@H](C)NC(=O)CN)[C@@H](C)O)C(=O)N[C@H](C(=O)N[C@@H](C)C(=O)N[C@H](C(=O)N1CCC[C@H]1C(N)=O)[C@@H](C)O)C(C)C [Example 39, H-GATPGKALVATP-NH2] (H-GATPGKALVATP-NH2) | not met
CC(C)C[C@H](NC(=O)[C@H](C)NC(=O)CNC(=O)[C@@H](NC(=O)[C@@H](N)CCCNC(=N)N)[C@@H](C)O)C(=O)N[C@H](C(=O)N[C@@H](CC(C)C)C(=O)N[C@@H](CO)C(=O)N[C@@H](CCCNC(=N)N)C(=O)NCC(N)=O)C(C)C [Example 23, H-RTGALVLSRG-NH2] (H-RTGALVLSRG-NH2) | not met
CC[C@H](C)[C@H](NC(=O)[C@H](CCCNC(=N)N)NC(=O)[C@H](CC(C)C)NC(=O)[C@H](CC(C)C)NC(=O)CNC(=O)[C@@H](NC(=O)[C@@H](N)Cc1c[nH]cn1)C(C)C)C(=O)N[C@@H](CCCCN)C(N)=O [Example 69, H-HVGLLRIK-NH2] (H-HVGLLRIK-NH2) | met
CC(C)C[C@H](NC(=O)[C@@H](N)CCC(N)=O)C(=O)N[C@@H](Cc1c[nH]c2ccccc12)C(=O)N[C@@H](CC(=O)O)C(=O)N[C@H](C(=O)N[C@@H](C)C(=O)N[C@@H](Cc1c[nH]cn1)C(=O)N[C@@H](CO)C(=O)N[C@H](C(=O)N[C@@H](CCCCN)C(=O)N[C@@H](CCC(=O)O)C(=O)N[C@@H](CCCCN)C(=O)N[C@@H](Cc1ccccc1)C(N)=O)C(C)C)C(C)C [Example 54, H-QLWDVAHSVKEKF-NH2] (H-QLWDVAHSVKEKF-NH2) | not met
CC[C@H](C)[C@H](NC(=O)[C@H](CCCCN)NC(=O)[C@@H](NC(=O)[C@H](CC(C)C)NC(=O)[C@@H](NC(=O)CNC(=O)[C@@H](N)CO)[C@@H](C)O)[C@@H](C)CC)C(=O)N[C@@H](Cc1ccccc1)C(=O)N[C@@H](CCC(N)=O)C(=O)N[C@@H](C)C(=O)N[C@@H](CO)C(N)=O [Example 47, H-SGTLIKIFQAS-NH2] (H-SGTLIKIFQAS-NH2) | not met

Turning now to a further compound:
Challenge: Evaluate CC[C@H](C)[C@H](NC(=O)[C@H](Cc1c[nH]cn1)NC(=O)[C@@H](N)CC(C)C)C(=O)N[C@@H](CO)C(=O)N[C@@H](Cc1c[nH]cn1)C(=O)N[C@@H](CC(=O)O)C(=O)N[C@@H](CCSC)C(=O)N[C@H](C(=O)NCC(=O)N1CCC[C@H]1C(=O)N[C@@H](CC(=O)O)C(N)=O)[C@@H](C)O [Example 19, H-LHISHDMTGPD-NH2] (H-LHISHDMTGPD-NH2) : pIC50 at minimum 7?
Response given: not met
